These entries and their values trace back to patent US6043357A.

Target: HIV-1 protease (Human immunodeficiency virus type 1 group M subtype B, UniProt P03369)
Assay: biochemical
Conditions: Table 2; pH 6.5, 37° C.; read-out: IC50
Outcome Measure: IC50 (µM)

Compound	Experimental Target	Outcome Measure	Measured Result
CC[C@H](C)[C@H](NC(=O)[C@@H]1CCCN1C[C@@H](O)[C@@H]1Cc2ccc(cc2)OCCCCC(=O)N[C@@H](CC(N)=O)C(=O)N1)C(=O)N[C@H](C(N)=O)C(C)C	HIV-1 protease (Human immunodeficiency virus type 1 group M subtype B, UniProt P03369)	IC50	0.165

I: CC[C@H](C)[C@H](NC(=O)[C@@H]1CCCN1C[C@H](O)[C@@H]1CSSCC(NC(C)=O)C(=O)NCC(=O)N[C@@H](CC(N)=O)C(=O)N1)C(=O)N[C@H](C(N)=O)C(C)C (stereo partly drawn)
II: CC[C@H](C)[C@H](NC(=O)[C@@H]1CCCN1C[C@@H](O)[C@@H]1CSSCC(NC(C)=O)C(=O)NCC(=O)N[C@@H](CC(N)=O)C(=O)N1)C(=O)N[C@H](C(N)=O)C(C)C (stereo partly drawn)
I'd appreciate it if you could identify which of I and II has the greater IC50. Answer by quoting the chosen item's label.
II

----------
Molecular target: HIV-1 protease (Human immunodeficiency virus type 1 group M subtype B, UniProt P03369)
Assay: biochemical
Settings: Table 7; pH 6.5, 37° C.; read-out: IC50
Outcome Measure: IC50 (nM)

a: CC(C)CCN(C[C@@H](O)[C@@H]1Cc2ccc(cc2)OCCCC(=O)N[C@@H](C(C)C)C(=O)N1)S(=O)(=O)c1ccc(N)cc1 [Compound 60]
b: CC(C)CCN(C[C@@H](O)[C@@H]1Cc2ccc(cc2)OCCCCC(=O)N[C@@H](C(C)C)C(=O)N1)S(=O)(=O)c1ccc(N)cc1 [Compound 62]
Lower IC50: a or b ? Answer by quoting the chosen item's label.
b

----------
Target: HIV-1 protease (Human immunodeficiency virus type 1 group M subtype B, UniProt P03369)
Experiment: biochemical
Details: Table 11; pH 6.5, 37° C.; read-out: IC50
Outcome Measure: pIC50
# pIC50: negative log10 of molar concentration; output just the value

Output measured pIC50 for this item: `CC[C@H](C)[C@@H]1NC(=O)[C@@H](NC[C@@H](O)[C@@H]2Cc3ccc(cc3)OCCCC(=O)N[C@@H](C(C)C)C(=O)N2)Cc2ccc(cc2)OCCCNC1=O`
8.10

----------
Target: UniProt:P03369
Assay: biochemical
Conditions: pH 6.5
Outcome Measure: IC50 (nM)
Just the number please, in nM, no unit attached.

Example results:
Compound	IC50, nM
CC[C@H](C)[C@H](NC(=O)[C@@H]1CCCN1C[C@@H](O)[C@@H]1Cc2ccc(cc2)OCC(=O)N[C@@H](CCCNC(=N)N)C(=O)N[C@@H](CC(N)=O)C(=O)N1)C(=O)N[C@H](C(N)=O)C(C)C [Compound 23]	49
CC[C@H](C)[C@H](NC(=O)[C@@H]1CCCN1C[C@H](O)[C@@H]1Cc2ccc(cc2)OCC(=O)N[C@@H](CCCNC(=N)N)C(=O)N[C@@H](CC(N)=O)C(=O)N1)C(=O)N[C@H](C(N)=O)C(C)C [Compound 22]	42

Output measured IC50 for this item: CC[C@H](C)[C@H](NC(=O)[C@@H]1CCCN1C[C@H](O)[C@@H]1Cc2ccc(cc2)OCC(=O)N[C@@H](Cc2cnc[nH]2)C(=O)N[C@@H](CC(N)=O)C(=O)N1)C(=O)N[C@H](C(N)=O)C(C)C [Compound 20]
26

Output measured IC50 for this item: CC[C@H](C)[C@H](NC(=O)[C@@H]1CCCN1C[C@@H](O)[C@@H]1Cc2ccc(cc2)OCC(=O)N[C@@H](Cc2cnc[nH]2)C(=O)N[C@@H](CC(N)=O)C(=O)N1)C(=O)N[C@H](C(N)=O)C(C)C [Compound 21]
339
